# reported growth; entries follow
Test system: EKVX NSCLC
Test: NCI-60 one-dose screen, 48 h (100 = growth as untreated, 0 = no growth, -100 = all killed)
Conditions: 10 µM unless noted
Compounds without any hit were thinned out: in the full panel of roughly 83,000, 20% have a hit.
Report the figure in % without appending any unit label.

The cases that follow already have their growth on record.
Entry Smiles	growth / %
CC(=O)Nc1ccc(/C=N/N2CCCCCC2)cc1	98.8
CC(C)c1nc2ccccc2n1CC(=O)N/N=C/c1cccc(O)c1	105

Moving on to another compound below.
// query What is its growth for EKVX NSCLC? Entry: `O=C(N/N=C\c1cc(Br)ccc1O)c1ccncc1`
// result 29.6

* * *

Tested on: SR leukemia
Experiment: NCI-60 one-dose screen, 48 h (100 = growth as untreated, 0 = no growth, -100 = all killed)
Details: 10 µM unless noted
This is part of a sample that, as a whole, favours compounds with a hit. Of some 83,000 tested, about 20% had one in any assay.
Reported Endpoint: growth (%)
Dear colleague, please return just the value in %, with no unit written.

Answered cases to consult:
Molecule	Target Or Test System	Scale Unit	growth
O=C(O)C(CCc1ccccc1)NCc1ccccc1 (centres undefined)	SR leukemia	%	106
CC(SC(C)C(=O)N/N=C/c1cccc(Cl)c1)C(=O)N/N=C\c1cccc(Cl)c1 (centres undefined)	SR leukemia	%	15.8
COc1cc([N+](=O)[O-])cc(OC)c1OC	SR leukemia	%	102
COc1cc(/C=C2\CN(C(=O)OC(C)(C)C)C/C(=C\c3ccc(O)c(OC)c3)C2=O)ccc1O	SR leukemia	%	79.9
C#CCO[C@H]1CC[C@H](OCC#C)[C@@H]2[C@H]1[C@H]1C[C@@H]3[C@@]4(C)CCC[C@@](C)(C(=O)OC)[C@@H]4CC[C@@]23C=C1C(C)C	SR leukemia	%	20.5

// query # get_value(readout='growth', item= `COc1cc(OC)cc(-c2ccc(-c3ccc(C(=N)N)s3)s2)c1` )
// result -47.3

// query And the next one, CCSCC1CC(O)(c2ccccc2)C(c2ccccc2)C(c2ccc(F)cc2)O1 (centres undefined) ?
// result 1.33

// query Continue with `Nc1c(C(=O)Nc2cccc(Cl)c2)sc2nc3c(cc12)C(=O)CCC3`
// result 39.1

// query Record: `ClCCn1cnc2c(SCc3ccccc3Cl)ncnc21`
// result -21.5

// query Same question, S=C(Nc1ccc(Cl)cc1)Nc1ccc(Cl)cc1 (tested in a mixture with another compound) this time
// result 5.29

* * *

Test system: MALME-3M melanoma
Assay: NCI-60 one-dose screen, 48 h (100 = growth as untreated, 0 = no growth, -100 = all killed)
Details: 10 µM unless noted
About 83,000 compounds went through this panel and 20% of them were active in at least one assay; those are over-represented in the sample as a whole.
Reported Endpoint: growth (%)
Give the number; % is assumed, so skip it.

Entry Smiles	growth / %
COc1ccc(/C=C/C(=O)CCC(=O)O)cc1OC	102
CC(=O)c1ccc(N2C(=O)c3ccc(Oc4ccccc4)cc3C2=O)cc1	106
S=C(S)Oc1cccc2cccnc12	90.9
N=C(N)c1ccc(-c2ccc(-c3ccco3)o2)cc1F	-68.2

Shift focus to the following entry.
// query I have this molecule here, `c1ccc(CCn2cccc2)nc1` , and I need its recorded growth.
// result 114
